- assay-name: Inhibition of purified beta-lactamase CTX-M-14 (unknown origin) using nitrocefin as substrate preincubated for 10 mins followed by substrate addition
Parameter: pKi. Scope: all listed entries.
Quick note: pKi values are minus log10 of concentrations in mol/L.

C[C@@H](O[Si](C)(C)C(C)(C)C)[C@H]1C(=O)N[C@@H]1N(O)C(=O)c1ccccc1; 6.49

In: pKi for C[C@@H](O[Si](C)(C)C(C)(C)C)[C@H]1C(=O)N[C@@H]1N(OCc1ccccc1)C(=O)c1ccccc1 ?
Out: 6.60

---

- assay-name: Inhibition of purified beta-lactamase NDM-1 (unknown origin) using imipenem as substrate preincubated for 10 mins followed by substrate addition
pKi: −log10 of the molar value.
The threshold is inclusive: pKi of exactly 7 counts as class 1; values below receive class 0.

C=CCON(C(=O)c1cc([N+](=O)[O-])cc(C(F)(F)F)c1)C1CC(=O)N1SC (racemic); class 1
C=CCON(C(=O)c1ccc([N+](=O)[O-])cc1)C1CC(=O)N1SC (racemic); class 1
CC(C)(C)[Si](C)(C)N1C(=O)CC1N(OCc1ccccc1)C(=O)c1ccccc1 (racemic); class 0
CSN1C(=O)[C@H]([C@@H](C)O[Si](C)(C)C(C)(C)C)[C@H]1N(OCc1ccccc1)C(=O)c1ccccc1; class 0
O=C(Cc1ccccc1)N[C@@H]1C(=O)N[C@H]1N(OCc1ccccc1)C(=O)c1ccccc1; class 0
C=CCON(C(=O)c1ccc([N+](=O)[O-])cc1)C1CC(=O)N1 (racemic); class 0
CC(C)(C)[Si](C)(C)ON(C(=O)c1ccccc1)[C@@H]1NC(=O)[C@H]1NC(=O)COc1ccccc1 (racemic); class 0
CSN1C(=O)[C@@H](NC(=O)COc2ccccc2)[C@@H]1N(OCc1ccccc1)C(=O)c1ccccc1 (racemic); class 1
CSN1C(=O)CC1N(OCc1ccccc1)C(=O)c1ccc([N+](=O)[O-])cc1 (racemic); class 0
C[C@@H](O[Si](C)(C)C(C)(C)C)[C@H]1C(=O)N[C@@H]1N(OCc1ccccc1)C(=O)c1ccccc1; class 0

In: Does the reported pKi for CC(=O)O[C@@H]1NC(=O)[C@H]1NC(=O)COc1ccccc1 fall at or above the 7 mark?
Out: class 0

In: Then CCOc1ccc(C(=O)N(OCc2ccccc2)C2CC(=O)N2)cc1 (racemic) ?
Out: class 0

In: Do the same for C[C@@H](O[Si](C)(C)C(C)(C)C)[C@H]1C(=O)N[C@@H]1N(O)C(=O)c1ccccc1 please
Out: class 0

In: Okay, and C=CCON(C(=O)c1cc([N+](=O)[O-])cc(C(F)(F)F)c1)C1CC(=O)N1 (racemic) ?
Out: class 0

In: Note, next up: C[C@@H](O)[C@H]1C(=O)N[C@@H]1N(OCc1ccccc1)C(=O)c1ccccc1
Out: class 0

In: Let us now turn to O=C(COc1ccccc1)N[C@@H]1C(=O)N[C@H]1N(OCc1ccccc1)C(=O)c1ccccc1
Out: class 0

---

- Test system: Mycobacterium tuberculosis
- assay-name: Antituberculosis activity against Mycobacterium tuberculosis H37Rv in 7H12 medium incubated for 4 days by Microplate Alamar Blue assay
- Assay type: functional
- applied-conditions: 96 h
measured-property: MIC (µM)
Just the number in µM, nothing appended.

Would you please look over these solved cases?
CSN1C(=O)[C@@H](NC(=O)COc2ccccc2)[C@@H]1N(OCc1ccccc1)C(=O)c1ccccc1 (racemic); 6
CSN1C(=O)[C@H]([C@@H](C)O[Si](C)(C)C(C)(C)C)[C@H]1N(OCc1ccccc1)C(=O)c1ccccc1; 10.3
CSN1C(=O)CC1N(OCc1ccccc1)C(=O)c1cc([N+](=O)[O-])cc(C(F)(F)F)c1 (racemic); 23.4
CO[C@H]1/C=C/O[C@@]2(C)Oc3c(C)c(O)c4c(O)c(c(/C=N/N5CCN(C)CC5)c(O)c4c3C2=O)NC(=O)/C(C)=C\C=C\[C@H](C)[C@H](O)[C@@H](C)[C@@H](O)[C@@H](C)[C@H](OC(C)=O)[C@@H]1C [RIFAMPIN]; 0.05

In: Notebook: pull reported MIC for Mycobacterium tuberculosis, entry CSN1C(=O)[C@@H](NC(=O)Cc2ccccc2)[C@@H]1N(OCc1ccccc1)C(=O)c1ccccc1 (racemic)
Out: 47.3
